experiment: Cmax in Balb/c mouse at 50 mg/kg, po administered via gavage in presence of 1-aminobenzotriazole; format: ADME, organism-based; set-up: route oral, dose 50 mg/kg; details: in vivo
ASSAY ENDPOINT: Cmax (ng/mL)

> print(dat)
                          molecule.smiles  data.value
1  O=C(NCCc1csc(-c2ccc(F)cc2F)n1)N1CCCCC1        7090

====

assay: Selectivity index, ratio of IC50 for cytotoxicity against human HEK293 cells assessed as reduction in cell viability to IC50 for antitrypanosomal activity against Trypanosoma brucei brucei Lister 427 blood stream form; type: toxicity, cell-based; conditions: read-out: Ratio IC50
# Lookup of reported selectivity ratio keyed by entry
ASSAY ENDPOINT: selectivity ratio

> print(dat)
                            molecule.smiles     assay.endpoint  data.value
1  C[Si](C)(C)C#Cc1cccc(C(=O)NCCc2csc(-c3ccccc3)n2)c1  selectivity ratio         2.9
2     O=C(NCCc1csc(-c2ccccc2)n1)c1cc(Br)co1  selectivity ratio          12
3     Cc1cccc(C(=O)NCCc2csc(-c3ccccc3)n2)c1  selectivity ratio          21

These data points were gathered from ChEMBL document CHEMBL4715758.
